Molecular target: angiotensin converting enzyme (Oryctolagus cuniculus, UniProt P12822)
Sequence (P12822 34-1310): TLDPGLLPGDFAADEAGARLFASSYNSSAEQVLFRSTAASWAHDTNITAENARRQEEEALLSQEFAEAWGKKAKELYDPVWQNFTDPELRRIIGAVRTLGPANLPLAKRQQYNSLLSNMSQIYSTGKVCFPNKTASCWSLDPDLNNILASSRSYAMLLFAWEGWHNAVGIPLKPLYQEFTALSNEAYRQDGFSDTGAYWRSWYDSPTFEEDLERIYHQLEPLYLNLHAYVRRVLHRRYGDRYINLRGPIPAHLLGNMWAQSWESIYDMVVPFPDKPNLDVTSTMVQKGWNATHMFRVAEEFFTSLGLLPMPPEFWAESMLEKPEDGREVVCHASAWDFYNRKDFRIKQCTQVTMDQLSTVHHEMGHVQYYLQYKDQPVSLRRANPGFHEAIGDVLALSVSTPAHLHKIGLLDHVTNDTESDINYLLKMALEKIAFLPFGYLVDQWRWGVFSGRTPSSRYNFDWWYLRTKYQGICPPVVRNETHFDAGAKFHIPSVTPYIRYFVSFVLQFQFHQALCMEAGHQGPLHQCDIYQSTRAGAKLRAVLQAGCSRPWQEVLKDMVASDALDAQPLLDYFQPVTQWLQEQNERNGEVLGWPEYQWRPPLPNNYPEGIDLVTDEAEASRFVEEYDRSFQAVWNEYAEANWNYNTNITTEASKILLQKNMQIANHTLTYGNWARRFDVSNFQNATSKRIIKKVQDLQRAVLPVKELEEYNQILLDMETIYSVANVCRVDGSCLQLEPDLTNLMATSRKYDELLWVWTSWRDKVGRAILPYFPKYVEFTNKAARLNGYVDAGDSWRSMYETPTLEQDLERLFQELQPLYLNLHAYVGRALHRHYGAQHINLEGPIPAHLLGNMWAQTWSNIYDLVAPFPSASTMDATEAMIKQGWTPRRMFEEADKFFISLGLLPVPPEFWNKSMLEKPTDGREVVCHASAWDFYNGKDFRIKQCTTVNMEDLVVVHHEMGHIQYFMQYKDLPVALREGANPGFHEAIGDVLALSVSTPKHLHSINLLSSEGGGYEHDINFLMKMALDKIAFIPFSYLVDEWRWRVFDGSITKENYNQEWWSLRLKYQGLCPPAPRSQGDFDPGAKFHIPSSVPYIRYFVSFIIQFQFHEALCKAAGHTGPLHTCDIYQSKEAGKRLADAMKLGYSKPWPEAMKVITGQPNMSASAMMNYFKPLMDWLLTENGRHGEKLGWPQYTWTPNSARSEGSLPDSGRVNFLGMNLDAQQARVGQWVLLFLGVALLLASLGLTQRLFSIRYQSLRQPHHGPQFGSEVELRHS
readoutLabel: IC50 (nM)

>  <compound>
O=C(O)[C@@H]1CCCN2C(=O)CC[C@H](CS)C(=O)N12 [Compound A]

>  <measuredTarget>
angiotensin converting enzyme (Oryctolagus cuniculus, UniProt P12822)

>  <numericValue>
4

$$$$
